# Tested on: U-251
# TEST_PROTOCOL: NCI tumour cell line growth inhibition, 48 h
The source made the active and inactive calls. Cut-off read from the data, not from the text of the source: active = GI50 up to about 1.1 µM and inactive = higher.
MEASURED_ATTRIBUTE: GI50

Noted GI50 for CC(C)OC(=O)c1ccc(NCC2=CC(=O)C=CC2=O)cc1Cl , tested on U-251: 16.9 µM (inactive)

Short answer on U-251 for O=C(c1ccccc1)c1nc2ccc(Cl)cc2cc1C(Br)Br , GI50: 0.192 µM (active)

Reported GI50 (U-251) for entry CC(C)Cc1ccc(C(C)/C=C2\CCC(CN3CCOCC3)C2=O)cc1 (stereo not given) is 13.5 µM (inactive)

// compound O=C1c2ccccc2C(=O)N1CCn1ccc(NC(c2ccccc2)(c2ccccc2)c2ccccc2)nc1=O , assay U-251, GI50 value: 16.4 µM (inactive)

Lab entry: U-251 assay, compound CN(C)CCNC(=O)c1cccc2c(NC(CS)C(=O)O)c3ccccc3nc12 (stereo not given) , GI50 = 6.38 µM (inactive)

Sourced from ChEMBL document CHEMBL1201862
